For each entry below, report its AC50 value.
- system.under.test: Amine oxidase [flavin-containing] A (Homo sapiens, UniProt P21397); further: assay procedure not described here
- Sequence (P21397 whole entry): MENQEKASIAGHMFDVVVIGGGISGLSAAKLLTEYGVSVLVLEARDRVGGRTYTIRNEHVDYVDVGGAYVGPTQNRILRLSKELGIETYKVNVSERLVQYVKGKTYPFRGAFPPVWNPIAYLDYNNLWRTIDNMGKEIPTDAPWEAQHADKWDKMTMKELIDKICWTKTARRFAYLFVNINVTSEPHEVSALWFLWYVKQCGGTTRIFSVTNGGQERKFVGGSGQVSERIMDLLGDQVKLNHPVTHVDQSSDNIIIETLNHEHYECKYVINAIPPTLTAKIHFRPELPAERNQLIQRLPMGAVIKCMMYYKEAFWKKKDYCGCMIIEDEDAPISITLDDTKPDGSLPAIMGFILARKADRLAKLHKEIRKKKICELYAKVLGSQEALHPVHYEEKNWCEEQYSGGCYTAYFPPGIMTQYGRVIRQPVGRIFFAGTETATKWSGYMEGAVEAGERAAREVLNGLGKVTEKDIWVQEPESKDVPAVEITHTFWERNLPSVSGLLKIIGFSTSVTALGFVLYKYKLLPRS
- Assay type: functional

Asked: Please indicate AC50 recorded for CN(Cc1cnc2nc(N)nc(N)c2n1)c1ccc(C(=O)N[C@@H](CCC(=O)O)C(=O)O)cc1 [METHOTREXATE]
Given back: > 10 µM

Asked: Look up AC50 of COc1cc(C(=O)NS(=O)(=O)c2ccccc2C)ccc1Cc1cn(C)c2ccc(NC(=O)OC3CCCC3)cc12 [ZAFIRLUKAST] and report it.
Given back: > 10 µM

Asked: State its AC50: CC[C@@H](CO)NC(=O)[C@@H]1C=C2c3cccc4c3c(cn4C)C[C@H]2N(C)C1 [METHYSERGIDE]
Given back: > 10 µM

Asked: Give AC50 for the following compound: CCc1cc2c(s1)-n1c(C)nnc1CN=C2c1ccccc1Cl [ETIZOLAM]
Given back: > 30 µM

Asked: Write down AC50 measured for item CC(CN(C)C)C(C)(O)Cc1ccc(Cl)cc1 (stereo not given) [CLOBUTINOL]
Given back: > 10 µM
